Reference source for all entries: patent EP1388586A2

# Assayed System: DRB10404 (DR4w14) (Homo sapiens, UniProt P01903+P01911, A100R/A169T/F76Y/I96L/K127E/L162R/M171V/N62H/P40V/Q125Y/R42H/S133A/S149N/S66Y/V209L/W38E)
# Construct: used as sources of human HLA class II molecules; endogenous in cells; host or cells: BIN40 (EBV-transformed homozygous B cell line)
# Assay Name: Class II peptide-binding assay, DR4w14
# Condition Notes: read-out: DR4w14 nM (In IC50 Format); purified HLA DR4w14
Ends that are not written are not given here.
A collection of substances and their measured IC50
// return numeric value only (unit: nM, not printed)

Field: example entries. Status: answers known.
• YARFQSQTTLAAKT-NH2 [Peptide 717.50] = 4.3
• YARFQSLTTLKAKT-NH2 [Peptide 717.15] = 9.4
• YARFQSQTALKAKT-NH2 [Peptide 717.52] = 31.3
• Ac-AFAAAATLKA-NH2 [Peptide 770.02] = 102

Exercise: Given YAEFQSQTTLKAKT-NH2 [Peptide 717.41] , state its recorded IC50.
Solution: 65.8

Exercise: Consider the substance shown here: YARFQSQATLKAKT-NH2 [Peptide 717.53] What is its recorded IC50?
Solution: 10.6

Exercise: Which measured IC50 value corresponds to TSATQRLANSLVHSSNNFG [Peptide 735.02] ?
Solution: 13.2

Exercise: Requested read-out: IC50. Entry: YARFQSQTSLKAKT-NH2 [Peptide 717.31]
Solution: 10.6

Exercise: What IC50 value was documented for this substance, YARFQSQTTAKAKT-NH2 [Peptide 717.51] ?
Solution: 13.2

Exercise: Given YAAYVKLTAARKFA-NH2 [Peptide 806.03] , state its recorded IC50.
Solution: 4550

Exercise: Item under review: YSRFQSQTTLKAKT-NH2 [Peptide 717.38] . Reported IC50?
Solution: 15.2

---

# Assayed System: DRB1*0301 (DR3w17) (Homo sapiens, UniProt P01903+P01911, A100K/A102G/A103R/A169T/F55Y/I96L/K41T/L162R/M171V/P40S/Q125H/Q178H/Q39Y/R42S/S66N/T106N/T262R/W38E/Y61H)
# Construct: used as sources of human HLA class II molecules; endogenous in cells; host or cells: MAT (EBV-transformed homozygous B cell line)
# Sequence (P01903 26-254, other chains not shown): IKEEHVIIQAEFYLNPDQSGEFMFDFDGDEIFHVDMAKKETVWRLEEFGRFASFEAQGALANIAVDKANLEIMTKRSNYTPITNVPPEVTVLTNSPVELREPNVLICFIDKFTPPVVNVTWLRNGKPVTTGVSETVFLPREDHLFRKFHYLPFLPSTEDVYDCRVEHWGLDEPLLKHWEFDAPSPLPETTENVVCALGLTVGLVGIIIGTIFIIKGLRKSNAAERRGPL
# Assay Name: Class II peptide-binding assay, DR3 (pH 4.5);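 note: unlabeled peptide competing with a radiolabeled probe peptide for binding to affinity-purified HLA-DR3, IC50 regarded as an approximation of Kd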
# Condition Notes: read-out: In IC50 Format DR3 nM; Table VIII; values in parentheses read as lower bounds
pIC50: −log10 of the molar value. Ends that are not written are not given here.
Measured Parameter: pIC50

- DNLYYWDQDPPERGA [Peptide 39.0383]: < 3.92
- ETEYHADGGKVPIKW [Peptide 39.0367]: < 3.95

Lab note: next sequence to report on.
Exercise: Fill blank: measured pIC50 of the sequence DLTLGLEPSEEEAPR [Peptide 39.0377] is ____.
Solution: < 3.92

---

Below: a set of entries, each annotated with reported pIC50.
# Assayed System: DRB10404 (DR4w14) (Homo sapiens, UniProt P01903+P01911, A100R/A169T/F76Y/I96L/K127E/L162R/M171V/N62H/P40V/Q125Y/R42H/S133A/S149N/S66Y/V209L/W38E)
# Construct: used as sources of human HLA class II molecules; endogenous in cells; host or cells: BIN40 (EBV-transformed homozygous B cell line)
# Assay Name: Class II peptide-binding assay, DR4w14;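 note: unlabeled peptides compete with a radiolabeled probe for binding to affinity-purified HLA-DR, neutral pH, class II amount titrated to bind a small fraction of label, IC50 approximates Kd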
# Condition Notes: read-out: DR4w14 nM (In IC50 Format); purified HLA DR4w14
Ends that are not written are not given here.
Worth noting: pIC50 values are minus log10 of concentrations stated in mol/L.

Solved cases below.
• RLANSLVHSSNNFGAILSS [Peptide 735.03] = 7.89
• YERFQSQTTLKAKT-NH2 [Peptide 717.39] = 7.78
• YARFQSQTTLKART-NH2 [Peptide 717.25] = 7.97

Exercise: I have this substance here, YARFQSQTTLKAKT [Peptide 717.67] , and I need its recorded pIC50.
Solution: 7.95

Exercise: Dear colleague, I am looking for the recorded pIC50 of the following substance: YARFQSQETLKAKT-NH2 [Peptide 717.17]
Solution: 7.60
